Biological target: CDK4 (Homo sapiens, UniProt P11802)
Construct: endogenous in cells
Sequence (P11802 whole entry): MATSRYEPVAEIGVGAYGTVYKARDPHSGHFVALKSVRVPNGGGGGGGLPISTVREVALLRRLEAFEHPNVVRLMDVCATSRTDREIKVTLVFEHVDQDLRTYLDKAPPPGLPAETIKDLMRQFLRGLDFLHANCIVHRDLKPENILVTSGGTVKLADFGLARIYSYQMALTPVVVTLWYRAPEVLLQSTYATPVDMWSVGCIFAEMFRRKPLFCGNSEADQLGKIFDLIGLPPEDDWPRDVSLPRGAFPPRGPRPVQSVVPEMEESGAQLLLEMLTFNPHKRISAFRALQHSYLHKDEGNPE
Experiment: CDK4 degradation (DC50, Dmax)
Format: cell-based
For each of the compounds below, state its DC50.

[[record]]
compound = "Cc1nc2c(F)cc(-c3nc(Nc4ccc(CC5CCN(C6CCN(c7ccc8c(c7)C(=O)N(C7CCC(=O)NC7=O)C8=O)CC6)CC5)cn4)ncc3F)cc2n1C(C)C (stereo not drawn)"
system = "CDK4 (Homo sapiens, UniProt P11802)"
result = "50 to 200 nM"

[[record]]
compound = "Cc1nc2c(F)cc(-c3nc(Nc4ccc(CN5CCN(CC6CCN(c7ccc8c(c7)C(=O)N(C7CCC(=O)NC7=O)C8=O)CC6)CC5)cn4)ncc3F)cc2n1C(C)C (stereo not drawn)"
system = "CDK4 (Homo sapiens, UniProt P11802)"
result = "< 50 nM"


Could I get DC50 for every one of these entries?
1. CC(=O)c1c(C)c2cnc(Nc3ccc(N4CCN(C5CCN(C(=O)N6CCC(c7ccc8c(c7)CN(C7CCC(=O)NC7=O)C8=O)CC6)CC5)CC4)cn3)nc2n(C2CCCC2)c1=O (stereo not drawn)
2. CC(=O)c1c(C)c2cnc(Nc3ccc(N4CCN(CCNc5ccc6c(c5)C(=O)N(C5CCC(=O)NC5=O)C6=O)CC4)cn3)nc2n(C2CCCC2)c1=O (stereo not drawn)

Given back:
> 200 nM
< 50 nM

Could you tell me DC50 for each of these compounds? They are listed below.
1. CN(C)C(=O)c1cc2cnc(Nc3ccc(N4CCN(CCCNc5ccc6c(c5)C(=O)N(C5CCC(=O)NC5=O)C6=O)CC4)cn3)nc2n1C1CCCC1 (stereo not drawn)
2. CC(=O)c1c(C)c2cnc(Nc3ccc(C4CCN(C(=O)C5CN(c6ccc(C(=O)NC7CCC(=O)NC7=O)cc6)C5)CC4)cn3)nc2n(C2CCCC2)c1=O (stereo not drawn)

Given back:
["< 50 nM", "50 to 200 nM"]

# map each compound to its DC50
1. CC(=O)c1c(C)c2cnc(Nc3ccc(C4CCN(C(=O)C5CN(c6ccc7c(c6)CN(C6CCC(=O)NC6=O)C7=O)C5)CC4)cn3)nc2n(C2CCCC2)c1=O (stereo not drawn)
2. CC(=O)c1c(C)c2cnc(Nc3ccc(N4CCN(CC5CCN(C(=O)N6CCC(CN7CCN(c8ccc9c(c8)C(=O)N(C8CCC(=O)NC8=O)C9=O)CC7)CC6)CC5)CC4)cn3)nc2n(C2CCCC2)c1=O (stereo not drawn)
3. CC(=O)c1c(C)c2cnc(Nc3ccc(N4CCN(CC5CN(c6cccc7c6C(=O)N(C6CCC(=O)NC6=O)C7=O)C5)CC4)cn3)nc2n(C2CCCC2)c1=O (stereo not drawn)
4. CC(=O)c1c(C)c2cnc(Nc3ccc(N4CCN(C5CCN(c6cccc7c6C(=O)N(C6CCC(=O)NC6=O)C7=O)CC5)CC4)cn3)nc2n(C2CCCC2)c1=O (stereo not drawn)
5. CC(=O)c1c(C)c2cnc(Nc3ccc(N4CCN(CCC5CCN(c6ccc7c(c6)CN(C6CCC(=O)NC6=O)C7=O)CC5)CC4)cn3)nc2n(C2CCCC2)c1=O (stereo not drawn)
6. CC(=O)c1c(C)c2cnc(Nc3ccc(N4CCN(C(=O)N5CCC(N6CCC(c7ccc8c(c7)CN(C7CCC(=O)NC7=O)C8=O)CC6)CC5)CC4)cn3)nc2n(C2CCCC2)c1=O (stereo not drawn)

Given back:
["50 to 200 nM", "50 to 200 nM", "50 to 200 nM", "50 to 200 nM", "50 to 200 nM", "> 200 nM"]

For every item in the list below, what is its measured DC50?
1. CC(=O)c1c(C)c2cnc(Nc3ccc(N4CCN(CC5CCN(C(=O)N6CCC(c7ccc8c(c7)C(=O)N(C7CCC(=O)NC7=O)C8=O)CC6)CC5)CC4)cn3)nc2n(C2CCCC2)c1=O (stereo not drawn)
2. Cc1nc2c(F)cc(-c3nc(Nc4ccc(CC5CCN(CC6CN(c7ccc(NC8CCC(=O)NC8=O)cc7)C6)CC5)cn4)ncc3F)cc2n1C(C)C (stereo not drawn)
3. Cc1nc2c(F)cc(-c3nc(Nc4ccc(CN5CCN(C6CCN(c7ccc(C(=O)NC8CCC(=O)NC8=O)cc7)CC6)CC5)cn4)ncc3F)cc2n1C(C)C (stereo not drawn) [Compound 167]
4. CC(=O)c1c(C)c2cnc(Nc3ccc(N4CCN(C5CCN(C(=O)N6CCC(C7CCN(c8ccc9c(c8)C(=O)N(C8CCC(=O)NC8=O)C9=O)CC7)CC6)CC5)CC4)cn3)nc2n(C2CCCC2)c1=O (stereo not drawn)
5. CC(=O)c1c(C)c2cnc(Nc3ccc(N4CCN(CCCNc5ccc(N6CCC(=O)NC6=O)cc5)CC4)cn3)nc2n(C2CCCC2)c1=O

Given back:
["> 200 nM", "50 to 200 nM", "50 to 200 nM", "> 200 nM", "< 50 nM"]

Fill in DC50 for each of the 4 compounds listed.
1. Cc1nc2c(F)cc(-c3nc(Nc4ccc(CC5CCN(C(=O)C6CN(c7ccc(NC8CCC(=O)NC8=O)cc7)C6)CC5)cn4)ncc3F)cc2n1C(C)C (stereo not drawn)
2. Cc1nc2c(F)cc(-c3nc(Nc4ccc(CC5CCN(CC6CCN(c7ccc(NC8CCC(=O)NC8=O)cc7)CC6)CC5)cn4)ncc3F)cc2n1C(C)C (stereo not drawn)
3. CC(=O)c1c(C)c2cnc(Nc3ccc(N4CCN(C(=O)N5CCN(C6CCN(c7ccc8c(c7)C(=O)N(C7CCC(=O)NC7=O)C8=O)CC6)CC5)CC4)cn3)nc2n(C2CCCC2)c1=O (stereo not drawn)
4. Cc1nc2c(F)cc(-c3nc(Nc4ccc(CN5CCN(CC6CN(c7ccc8c(c7)C(=O)N(C7CCC(=O)NC7=O)C8=O)C6)CC5)cn4)ncc3F)cc2n1C(C)C (stereo not drawn)

Given back:
1. 50 to 200 nM
2. < 50 nM
3. > 200 nM
4. < 50 nM
